What pIC50 was measured for each of the following?
TARGET_ENTITY: TAFIa (Homo sapiens (Human), UniProt Q96IY4)
Sequence (Q96IY4 115-423): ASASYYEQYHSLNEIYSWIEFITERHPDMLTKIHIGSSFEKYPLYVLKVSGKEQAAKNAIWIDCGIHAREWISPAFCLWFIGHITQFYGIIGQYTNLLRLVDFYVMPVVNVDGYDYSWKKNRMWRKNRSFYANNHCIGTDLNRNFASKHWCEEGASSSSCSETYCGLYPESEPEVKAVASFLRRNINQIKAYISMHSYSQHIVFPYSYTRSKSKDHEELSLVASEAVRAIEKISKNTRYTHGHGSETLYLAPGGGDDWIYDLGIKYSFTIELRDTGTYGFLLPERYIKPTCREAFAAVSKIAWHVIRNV
PROTOCOL_NOTES: Determination of TAFIa enzyme inhibitory activity (FAAK substrate degradation)
Assay type: biochemical
CONDITION_NOTES: TAFI activated with human thrombin / rabbit lung thrombomodulin; substrate FAAK, absorbance at 330 nm; read-out: TAFIa IC50
Here pIC50 is given on a logarithmic scale as minus log10 of the concentration in mol/L.

// query For the compound shown here, NCCC[C@H]1C[C@]1(C(=O)O)c1cn(C2CCCCC2)cn1 (relative stereo) , give the reported pIC50.
// result 7.54

// query For the compound shown here, NCCC[C@H]1C[C@]1(C(=O)O)c1cn(-c2ccc3occc3c2)cn1 (relative stereo) , give the reported pIC50.
// result 7.59

// query For the compound shown here, NCCC[C@H]1C[C@]1(C(=O)O)c1cn(-c2ccc(F)cc2)cn1 (relative stereo) , give the reported pIC50.
// result 7.68

// query For the compound shown here, NCCC[C@H]1C[C@]1(C(=O)O)c1cn(-c2ccccc2)cn1 [Example 30] , give the reported pIC50.
// result 7.89

// query For the compound shown here, C[C@@H](CN)C[C@H]1C[C@]1(C(=O)O)c1cn(-c2ccccc2)cn1 , give the reported pIC50.
// result 7.85

// query For the compound shown here, C[C@H](CN)C[C@@H]1C[C@@]1(C(=O)O)c1cn(-c2ccccn2)cn1 , give the reported pIC50.
// result 6.31

// query For the compound shown here, NCCC[C@H]1C[C@]1(C(=O)O)c1cn(-c2ccc(O)nc2)cn1 (relative stereo) , give the reported pIC50.
// result 6.47

====

What IC50 was measured for each of the following?
TARGET_ENTITY: UniProt:Q96IY4
PROTOCOL_NOTES: Determination of TAFIa enzyme inhibitory activity (FAAK substrate degradation)
Format: biochemical
CONDITION_NOTES: TAFI activated with human thrombin / rabbit lung thrombomodulin; substrate FAAK, absorbance at 330 nm; read-out: TAFIa IC50

// query For the compound shown here, C[C@H](CN)C[C@H]1C[C@]1(C(=O)O)c1cn(-c2ccccn2)cn1 [Example 56] , give the reported IC50.
// result 33 nM

// query For the compound shown here, NCCC[C@H]1C[C@]1(C(=O)O)c1cn(-c2ccc(F)cn2)cn1 (relative stereo) [Example 41] , give the reported IC50.
// result 19 nM

// query For the compound shown here, Cc1ccc(-n2cnc([C@]3(C(=O)O)C[C@H]3C[C@@H](C)CN)c2)nc1 [Example 59] , give the reported IC50.
// result 500 nM

// query For the compound shown here, CC(CN)C[C@H]1C[C@]1(C(=O)O)c1cn(-c2ccc(S(C)(=O)=O)cc2)cn1 (relative stereo) [Example 34] , give the reported IC50.
// result 930 nM

// query For the compound shown here, CCc1ccc(-n2cnc([C@@]3(C(=O)O)C[C@@H]3CCCN)c2)cc1 (relative stereo) [Example 11] , give the reported IC50.
// result 31 nM

// query For the compound shown here, NCCC[C@@H]1C[C@@]1(C(=O)O)c1cn(-c2ccccc2)cn1 [Example 29] , give the reported IC50.
// result > 10000 nM

// query For the compound shown here, Cc1ccc(-n2cnc([C@@]3(C(=O)O)C[C@@H]3CCCN)c2)nc1 (relative stereo) [Example 49] , give the reported IC50.
// result 18 nM

// query For the compound shown here, NCCC[C@H]1C[C@]1(C(=O)O)c1cn(-c2ccc(Cl)cc2)cn1 (relative stereo) [Example 18] , give the reported IC50.
// result 25 nM

====

TARGET_ENTITY: TAFIa (Homo sapiens (Human), UniProt Q96IY4)
PROTOCOL_NOTES: Determination of TAFIa enzyme inhibitory activity (FAAK substrate degradation)
Assay type: biochemical
CONDITION_NOTES: TAFI activated with human thrombin / rabbit lung thrombomodulin; substrate FAAK, absorbance at 330 nm; di-p-toluenesulfonate; read-out: TAFIa IC50
PROPERTY_MEASURED: pIC50
Here pIC50 is given on a logarithmic scale as minus log10 of the concentration in mol/L.

// query For the molecule shown here, NCCC[C@H]1C[C@]1(C(=O)O)c1cn(-c2ccccc2)cn1 [Example 31, di-p-toluenesulfonate] , give the reported pIC50.
// result 7.82

====

TARGET_ENTITY: TAFIa (Homo sapiens (Human))
PROTOCOL_NOTES: Determination of TAFIa enzyme inhibitory activity (FAAK substrate degradation)
Type: biochemical
CONDITION_NOTES: TAFI activated with human thrombin / rabbit lung thrombomodulin; substrate FAAK, absorbance at 330 nm; read-out: TAFIa IC50
What pIC50 was measured for each of the following?
Here pIC50 is given on a logarithmic scale as minus log10 of the concentration in mol/L.

// query For the compound shown here, CC(CCN)[C@H]1C[C@]1(C(=O)O)c1cn(-c2ccccc2)cn1 (relative stereo) [Example 36] , give the reported pIC50.
// result 7.44

// query For the compound shown here, CC[C@@H](CN)C[C@@H]1C[C@@]1(C(=O)O)c1cn(-c2ccccn2)cn1 [Example 61] , give the reported pIC50.
// result 6.44

// query For the compound shown here, C[C@H](CCN)C1CC1(C(=O)O)c1cn(-c2ccccn2)cn1 (some centres unmarked) [Example 68] , give the reported pIC50.
// result 7.92

// query For the compound shown here, NCCC[C@H]1C[C@]1(C(=O)O)c1cn(-c2ncccn2)cn1 (relative stereo) [Example 39] , give the reported pIC50.
// result 7.52

// query For the compound shown here, NCCC[C@H]1C[C@]1(C(=O)O)c1cn(-c2nccs2)cn1 (relative stereo) [Example 38] , give the reported pIC50.
// result 7.24

// query For the compound shown here, NCCC[C@H]1C[C@]1(C(=O)O)c1cn(-c2ccccn2)cn1 (relative stereo) [Example 25] , give the reported pIC50.
// result 7.54

// query For the compound shown here, NCCC[C@H]1C[C@]1(C(=O)O)c1cn(/C=C/c2ccccc2)cn1 (relative stereo) [Example 14] , give the reported pIC50.
// result 7.00
